# TARGET_OR_SYSTEM: T1, human 4-1BB on the surface of HEK293 cells (HEK293-Hu4-1BB) (human, UniProt Q07011 24-255)
# T1 construct: whole, on cells; also called CD137; cell strain highly expressing human 4-1BB
# PROCEDURE_TEXT: FACS, HEK293-Hu4-1BB cells
pEC50: −log10 of the molar value.
READOUT_NAME: pEC50

* C5_V2-YTI (TCE-optimized C5_V2, F99Y Kabat) linked to human IgG1-Fc (Fc fusion) QVQLVESGGGLVQPGGSLRLSCSASGFTFSSYAMSWVRQAPGKGLEWVSDINSGGESTFYEDSVKGRFTISRDNAKNTLYLQMNSLRAEDTAVYYCAKHPLTYTIATMNDYDYWGQGTLVTVSSEPKSADKTHTCPPCPAPELLGGPSVFLFPPKPKDTLMISRTPEVTCVVVDVEHEDPEVKFNWYVDGVEVHNAKTKPREEQYNSTYRVVSVLTVLHQDWLNGKEYKCKVSSKAFPAPIEKTISKAKGQPREPQVYTLPPSRDELTKNQVSLTCLVKGFYPSDIAVEWESNGQPENNYKTTPPVLDSDGSFFLYSKLTVDKSRWQQGNVFSCSVMHEALHNHYTQKSLSLSPGK | 9.21

Data credit: patent EP4674868A1
